Listing of recorded pIC50 by entry.
# Protocol: Cytotoxicity against human HCCLM3 cells assessed as reduction in cell viability measured upto 72 hrs by MTT assay
# Type: functional, cell-based
# Condition: HCCLM3, 72 h
pIC50: −log10 of the molar value.
Readout Label: pIC50

smiles_record=CC(C)Oc1cccc(-c2cc(=O)n(C)c(=O)[nH]2)c1 readout_label=pIC50 value=4.38
smiles_record=Cn1c(=O)cc(-c2cccc3ccccc23)[nH]c1=O readout_label=pIC50 value=4.37
